Kindly state melting point for each of the entries shown.

* CC(=O)c1ccc(Cn2c3c(c4cc(F)cc(F)c42)CCCC3CC(=O)O)cc1 (stereo not drawn) | 163 to 164 °C
* O=C(O)c1ccc2ccc(C(F)(F)F)nc2c1O | 209 to 211 °C
* Oc1cc2c(cc1CNc1ccccc1)OCC2 | 130 to 131 °C
* Fc1ccc(-c2ncn(C3CCNCC3)c2-c2ccnc(Oc3ccc(-c4ccccc4)cc3)n2)cc1 | 192 to 193 °C

// each listed compound needs a value for melting point
1. COc1ccc2[nH]cc(CC(=O)N3CCN(c4ccc([N+](=O)[O-])cc4)CC3)c2c1
2. N#Cc1ccc2c(c1)C(=O)N1CCC[C@@H]1CO2

Key:
1: 239 to 240 °C; 2: 164 to 165 °C

Hi! Can you tell me melting point for each of these compounds?
1. O=C1OCCC1n1nc(-c2c(-c3ccccc3)nn3ccccc23)ccc1=O (stereo not drawn)
2. Cn1nccc1COC(=O)Cc1ccccc1

Key:
1: 179 to 180 °C; 2: 80 to 83 °C
